experiment: NCI Yeast Anticancer Drug Screen. Data for the mgt1 strain (AID 153)
condition context: S. cerevisiae mgt1 mutant growth inhibition; at 100.0 µM
The panel holds about 79,000 compounds, 15% with a hit somewhere; the sample as a whole holds those more often. Activity calls are given as the source filed them. Cut-off read from the data, not from the text of the source: active = growth inhibition above about 70%; inactive = the rest.
Your answer must be one of the following: t = active, f = inactive

Task: Each molecule tested received a call. Report the one for CCOC(=O)CC1(C(=O)OCC)c2[nH]c3ccccc3c2CCN1Cc1ccccc1 (centres undefined) .
Output: f

Task: Write down the call the test reported for this molecule. Item: `CCCCC/C(=C(\C#N)C(=O)OCC)c1ccccc1`
Output: f

Task: Per the records of this test, what outcome belongs to `Cc1c2ccnc(C(=O)NCCN(C)C)c2cc2c3cc(O)ccc3n(C)c12` ?
Output: f

Task: Hey, what did the test say about `CC1(C)CC(=O)C(/C=N/c2nc(-c3ccccc3)cs2)=C(O)C1` ?
Output: t

Task: # fetch the recorded call for `CCc1nc2ccc(NCCN(C)C)c3c(=O)c4ccccc4n1c23` here
Output: f

Task: GET /call?item= CC(=O)OCC(C)Cc1cc2c(cc1Br)OCO2 (centres undefined) returns the recorded outcome of this test.
Output: f

Task: Tell me the recorded outcome of this test for `Oc1ccc(SCc2ccc(NCc3ccccc3)cc2)cc1` .
Output: t

Task: Name the outcome recorded for `CC(C)OC(=O)Nc1ccc2nc(-c3cscn3)[nH]c2c1` in the assay.
Output: t

Task: Assay result, entry `CCOC(=O)/C(=C\c1ccc(C#N)cc1)C(C)=O` — outcome?
Output: t

Task: Fill in: this test's call for `CC(C)c1ccc(NC(=S)NC(=O)c2ccccc2)cc1` is ___
Output: f

Task: Give the logged outcome of this assay for the following molecule: CCC1(OC(=O)CN2CCN(CCO)CC2)C(=O)OCc2c1cc1n(c2=O)Cc2cc3ccccc3nc2-1 (centres undefined)
Output: f

Task: What is the recorded call for this molecule in the test? CC(O)=NC(Cc1ccc2ccccc2c1)C(O)=NC(Cc1ccc(Cl)cc1)C(O)=NC(Cc1c[nH]c2ccccc12)C(O)=NC(CO)C(O)=NC(Cc1ccc(O)cc1)C(O)=NC(CCCN=C(N)N)C(O)=NC(CC(C)C)C(O)=NC(CCCN=C(N)N)C(=O)N1CCCC1C(O)=NC(C)C(=N)O (centres undefined)
Output: f

Task: Write down the call the test reported for this molecule. Item: `CCOC(=O)c1[nH]n(-c2ccccc2)c(=O)c1C=NC(=S)C(N)=S`
Output: t

Task: What outcome does the record of this test show for Cc1ccc(CC2(OCCN(C)C)CCC(C(C)(C)C)CC2)cc1 (centres undefined) ?
Output: t

Task: For this molecule, state the assay outcome: `CN(C)c1nc(=Nc2cccc(Cl)c2)ss1`
Output: t

Task: Field: outcome | Entry: `CCOC1=C/C(=N\Nc2ccc([N+](=O)[O-])cc2)CCC1`
Output: f

Task: Given `c1ccc2[nH]c(-c3cscn3)nc2c1` , state the outcome it received in this test.
Output: f

Task: Please let me know the test result on file for `O=C(Oc1ccc2c(c1)CN(Cc1ccccc1)CO2)c1ccccc1` .
Output: f

Task: Could you kindly confirm the outcome this assay logged for `C[C@@](O)(/C=C/[C@H]1CC=CC(=O)O1)[C@@H](C[C@@H](O)\C=C/C=C\C=C\CO)OP(=O)(O)O` ?
Output: t

Task: What classification did `Nc1n[n+]([O-])c2ccc(Cl)cc2[n+]1[O-]` end up with in this test?
Output: t

Task: Just curious, what result did `OCC(CO)C(c1cccc2ccccc12)c1cccc2ccccc12` get here?
Output: t

Task: GET /call?item= `O=c1nc2n(Cc3ccccc3)c3ccccc3nc-2c(=O)[nH]1` returns the recorded outcome of this test.
Output: t

Task: Field: outcome | Entry: `Cc1cc(N(CCOS(C)(=O)=O)CCOS(C)(=O)=O)ccc1C=Nc1ccc(-c2csc(-c3ccccc3)n2)c(Cl)c1`
Output: t

Task: Outcome logged for `COC1=C(OC)C(=O)C(Sc2ccc3ccccc3c2)=CC1=O` in this assay:
Output: t

Task: Which outcome did this test record for the molecule `COc1ccc(/C=C/C(=O)c2ccccc2)cc1OC` ?
Output: t

Task: For `CN(C)Cc1cc(N=Nc2ccc(Cl)cc2)ccc1OC(=O)c1ccccc1` , which call appears in the assay record?
Output: t

Task: What is the recorded call for this molecule in the test? `c1ccc2cc(NCNc3ccc4ccccc4c3)ccc2c1`
Output: f

Task: Hey, what did the test say about CCOC(=O)C(Br)C(Br)c1ccccc1Cl (centres undefined) ?
Output: t

Task: Could you please tell me the result logged for `Cc1cc2cc3cc(C)c(N)cc3nc2cc1N` in this assay?
Output: t

Task: Dear all, I need the recorded test outcome for `C=C(Cl)COC(=O)Nc1cccc(Cl)c1` , thank you.
Output: t

Task: Short answer needed: outcome of this test for `Cc1cc(S(=O)(=O)Nc2nnc3cnc4ccccc4n23)c(S)cc1Cl` ?
Output: f

Task: Test call, this molecule: CC1SC2(C(=O)Nc3ccc(Cl)cc32)N(c2ccc(Cl)cc2)C1=O (centres undefined)
Output: t

Task: Test call, this molecule: `Cc1ccc(S/C(=C\C(=O)O)c2ccccc2)cc1`
Output: f

Task: Could you kindly confirm the outcome this assay logged for C=C1CC(CCCl)(c2ccccc2)OC1=O (centres undefined) ?
Output: t

Task: Recorded test outcome, item CCCC(O)C1CC(C(C)C)CCC1C (centres undefined)
Output: t

Task: Given `CC(C)CN(CC(C)C)C(=O)c1ccc(Cl)c(Cl)c1` , state the outcome it received in this test.
Output: t

Task: Test call, this molecule: `O=C1NC(=O)c2ccc([N+](=O)[O-])c3cccc1c23`
Output: f

Task: What classification did `O=c1ssc(=Nc2ccccc2)n1-c1ccccc1` end up with in this test?
Output: f

Task: Test call for this molecule, please: O=C(c1ccc([N+](=O)[O-])cc1)C1N=NCC1c1ccccc1 (centres undefined)
Output: f

Task: Entry `CCCCOP(=O)(CCCP(=O)(OCCCC)OCCCC)OCCCC` : call = ?
Output: f

Task: Identify the outcome logged in this assay for the molecule shown: Nc1nc2ccc(NCc3ccc(C(=O)NC(CCC(=O)O)C(=O)O)cc3)cc2c(=O)[nH]1 (centres undefined)
Output: f

Task: # lookup: test call for `CCCCc1nnc(NS(=O)(=O)c2ccc(C)cc2)s1`
Output: t

Task: Which outcome was entered for the molecule `O=c1[nH]c(-c2ccccc2)nc2c1sc1nc3ccccc3n12` in this test?
Output: f

Task: Which result was noted for this molecule in the test: `Cc1nc(Nc2ccccc2[N+](=O)[O-])sc1C(=O)CC(=O)C(=O)Nc1c(C(C)C)cccc1C(C)C`
Output: f
